- measurement-protocol: viability loss in Ba/F3 EpoR-JAK2V617F cells – cell-based, luminescence, JAK2V617F inhibitor project, primary screen (AID 1446);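 further: cytokine-independent growth of Ba/F3 cells driven by EpoR plus mutant JAK2; 0% = DMSO-treated cells and 100% = JAK inhibitor I control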
- conditions-used: ATP luminescence, at 5.6 µM, active compounds read high
The whole screen tested about 220,000 compounds, of which about 2,400 (1.1%) were called active. This is one part of a sample in which actives are shown more often than they occur.
value-kind: inhibition (%)
Respond numerically; units are % and should not be typed.

Task item: Given COCCCNC(=O)C1CCN(c2ccc(N3CCOCC3)nn2)CC1 , state its recorded inhibition.
Reply: -2.04

Task item: Suppose we examine the molecule CC(=O)c1sc(NC(=O)c2cccc3ccccc23)nc1C ; what inhibition value has been reported?
Reply: -0.63

Task item: Quick one: inhibition of COc1ccccc1Nc1nc(N)nc(CSC(=S)N2CCOCC2)n1 ?
Reply: 0.7

Task item: Data request, read-out inhibition, for Cn1ccc(=Nc2ccc(NC(=O)c3ccc(N=c4ccn(C)c5ccc([N+](=O)[O-])cc45)cc3)cc2)cc1
Reply: 34.4

Task item: // returns reported inhibition for input Cc1ccccc1-c1nc(C#N)c(NCc2ccco2)o1
Reply: 0.66

Task item: Could you tell me which inhibition is on file for COc1ccc(Nc2cc(C)nc(-n3nc(C)cc3C)n2)cc1 ?
Reply: 76.7

Task item: Which inhibition reading was recorded for the molecule COc1ccc(F)cc1C(=O)C1CCCN(C(=O)CCc2ccccn2)C1 (centres undefined) ?
Reply: 0.16

Task item: Looking for the measured inhibition of COC(=O)Cn1c(O)c(N=NC(=O)OC)c2ccccc21 , can you help?
Reply: -2.09

Task item: Item under review: CC(C)[C@@H]1NC(=O)c2cc([N+](=O)[O-])cc(I)c2NCCC[C@@H](C(=O)NC(CC(=O)O)C(N)=O)NC(=O)[C@H](CO)NC1=O (some centres undefined) . Reported inhibition?
Reply: 1.14
